Source listed as ChEMBL document CHEMBL3988442.

Biological target: Protein translocase subunit SecA (Escherichia coli (strain K12))
Test: Assay to Identify E. coli SecA ATPase Inhibitors
Format: functional
Parameters: scale not given: direction of the effect not stated beside the values
Settings: 30 µM
Potency and affinity values are given separately.
Reported Percent Effect is given for each of the following molecules.

Molecule: Cc1noc(CN2CCN(CC(C)O)CC2)n1 (configuration not stated)
Measured target: Protein translocase subunit SecA (Escherichia coli (strain K12))
Percent Effect, %: -0.907
//
Molecule: Cc1nc(CN(C)C2CCN(Cc3nc4ccccc4s3)C2)no1 (configuration not stated)
Measured target: Protein translocase subunit SecA (Escherichia coli (strain K12))
Percent Effect, %: -6.59
//
Molecule: CC(=O)N1CCC(C(=O)NCCN2CCC(C)CC2)CC1
Measured target: Protein translocase subunit SecA (Escherichia coli (strain K12))
Percent Effect, %: -1.98
//
Molecule: CCC1(CC)Cc2ccccc2-c2nc(NCCO)[nH]c(=O)c21
Measured target: Protein translocase subunit SecA (Escherichia coli (strain K12))
Percent Effect, %: -5.77
//
Molecule: O=C(C1CCOC1)N1C[C@H]2CN(Cc3nccs3)C[C@H]2C1 (some centres not stated)
Measured target: Protein translocase subunit SecA (Escherichia coli (strain K12))
Percent Effect, %: -7.06
//
Molecule: CC(C)Oc1ccccc1C1CC(=O)Nc2c1cnn2C (configuration not stated)
Measured target: Protein translocase subunit SecA (Escherichia coli (strain K12))
Percent Effect, %: -2.1
//
Molecule: CC(C)c1nccn1C1CCCN(C(=O)c2ccnc(N(C)C)c2)C1 (configuration not stated)
Measured target: Protein translocase subunit SecA (Escherichia coli (strain K12))
Percent Effect, %: -2.97
//
Molecule: Cn1nnc2c1CCN(CC1CC1)C2COCc1ccccc1 (configuration not stated)
Measured target: Protein translocase subunit SecA (Escherichia coli (strain K12))
Percent Effect, %: -1.15
//
Molecule: Cc1noc([C@@H]2CC[C@@H]3[C@@H](CCN3S(=O)(=O)c3cccnc3)O2)n1
Measured target: Protein translocase subunit SecA (Escherichia coli (strain K12))
Percent Effect, %: -1.26
//
Molecule: Cc1cc(C)cc(C2(C(=O)NC(C)Cn3ccnc3)CC2)c1 (configuration not stated)
Measured target: Protein translocase subunit SecA (Escherichia coli (strain K12))
Percent Effect, %: -2.27
//
Molecule: Cc1nn(C)c2cnn(C(C)C(=O)NCc3cccnc3)c12 (configuration not stated)
Measured target: Protein translocase subunit SecA (Escherichia coli (strain K12))
Percent Effect, %: -0.721
//
Molecule: NC(=O)N1CC[C@H](O)[C@@H]1Cc1cccnc1
Measured target: Protein translocase subunit SecA (Escherichia coli (strain K12))
Percent Effect, %: -2.51
